- Assayed target: NAMPT (human, recombinant, C-terminally His-tagged) (Homo sapiens)
- Sequence (P43490 whole entry): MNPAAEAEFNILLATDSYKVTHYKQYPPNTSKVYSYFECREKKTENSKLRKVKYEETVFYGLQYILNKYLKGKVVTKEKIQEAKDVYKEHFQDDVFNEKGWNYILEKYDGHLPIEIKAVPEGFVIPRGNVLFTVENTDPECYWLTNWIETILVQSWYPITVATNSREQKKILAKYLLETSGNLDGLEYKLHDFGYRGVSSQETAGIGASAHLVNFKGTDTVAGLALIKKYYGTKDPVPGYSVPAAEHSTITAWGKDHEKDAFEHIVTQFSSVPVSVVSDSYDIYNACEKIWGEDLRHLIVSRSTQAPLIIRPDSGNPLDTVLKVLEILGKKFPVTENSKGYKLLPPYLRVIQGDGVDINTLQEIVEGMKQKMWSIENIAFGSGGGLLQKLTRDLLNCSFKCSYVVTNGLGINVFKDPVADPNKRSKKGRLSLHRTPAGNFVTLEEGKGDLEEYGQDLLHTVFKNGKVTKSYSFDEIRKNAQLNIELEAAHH
- Experiment description: Time-Resolved Fluorescence Resonance Energy Transfer (TR-FRET) Binding Assay of NAMPT
- Measurement conditions: absence of substrates; 6.8 nM NAMPT, 200 nM probe, equilibrated 3 hours
Readout type: IC50 (µM)
Answer with a number only, understood to be in µM.

1. O=C(NCCCn1ccnc1)c1cnc(N(Cc2ccc(F)cc2)C(=O)NC2CCOC2)s1 (centres unmarked) ... 8.69
2. CC(C)CCN(C(=O)CC1CCCO1)c1ncc(C(=O)NCCCn2ccnc2)s1 (centres unmarked) ... 0.707
3. O=C(NCCCn1ccnc1)c1cnc(N(CCCN2CCCCC2)Cc2ccc(F)cc2)s1 ... 3.16
4. N#Cc1ccc(CN(C(=O)NCCCCO)c2ncc(C(=O)NCCCn3ccnc3)s2)cc1 ... 4.85
5. COCCCN1CCN(CC(=O)N(Cc2ccc(F)cc2)c2ncc(C(=O)NCCCn3ccnc3)s2)CC1 ... 2.69
6. CC(C)CCN(C(=O)[C@H](C)Oc1ccccc1)c1ncc(C(=O)NCCCn2ccnc2)s1 ... 0.2
7. O=C(NCCCn1ccnc1)c1cnc(N(Cc2ccc(F)cc2)C(=O)CN2CCOCC2)s1 ... 2.2
8. COCCC(=O)N(CCc1ccc2c(c1)OCO2)c1ncc(C(=O)NCCCn2ccnc2)s1 ... 0.306

Lab note: need IC50 for COCCC(=O)N(CCOC)c1ncc(C(=O)NCCCn2ccnc2)s1 on NAMPT (human, recombinant, C-terminally His-tagged) (Homo sapiens), anyone have it? 1.15

Same thing, different compound: COCC(C)NC(=O)N(Cc1ccc(F)cc1)c1ncc(C(=O)NCCCn2ccnc2)s1 (centres unmarked) 8.02

Same thing, different compound: COCCC(=O)N(Cc1cccc(C)c1)c1ncc(C(=O)NCCCn2ccnc2)s1 3.78

Same thing, different compound: N#Cc1ccc(CN(C(=O)NCCC(=O)O)c2ncc(C(=O)NCCCn3ccnc3)s2)cc1 8.79

Same thing, different compound: Cc1cn(CCCNC(=O)c2cnc(N(Cc3ccc(F)cc3)C(=O)CC(C)C)s2)cn1 2.11
